# protocolText: collision cross section (TIMS, N2 drift gas) of the primary ion; higher = larger gas-phase ion size
# appliedConditions: ionization mode: ESI-; ion species: [M-H]-
Counter-ions that a name gives are not always drawn.
Each entry below carries its recorded collision cross section.

| molecule | collision cross section (Å²) |
| --- | --- |
| Oc1ccc(Cc2ccc(O)cc2)cc1 | 152.1 |
| N#Cc1ccc(C/C(=N\NC(=O)Nc2ccc(OC(F)(F)F)cc2)c2cccc(C(F)(F)F)c2)cc1 | 221.65 |
| CC(=O)Nc1ccc(S(=O)(=O)Nc2cc(C)on2)cc1 | 165.1 |
| C[C@]12CC[C@@H]3c4ccc(O)cc4CC[C@H]3[C@@H]1CC[C@H]2O | 173.91 |
| O=S(=O)(O)C(F)(F)C(F)(F)C(F)(F)C(F)(F)C(F)(F)C(F)(F)C(F)(F)C(F)(F)F | 169.04 |
| C[C@]12CCC(=O)C=C1CC[C@@H]1[C@@H]2[C@@H](O)C[C@]2(C=O)[C@@H](C(=O)CO)CC[C@@H]12 | 182.17 |
| CN(C)Cc1cc(C(C)(C)C)c(O)c(C(C)(C)C)c1 | 173.06 |
| Cn1c(N)nc2c3cccnc3ccc21 [2-Amino-3-methyl-imidazo[4,5-f]quinoline (IQ)] | 139.48 |
| CC[C@H](C)[C@H]1O[C@]2(CC[C@@H]1C)C[C@@H]1C[C@@H](C/C=C(\C)[C@@H](O[C@H]3C[C@H](OC)[C@@H](O[C@H]4C[C@H](OC)[C@@H](O)[C@H](C)O4)[C@H](C)O3)[C@@H](C)/C=C/C=C3\CO[C@@H]4[C@H](O)C(C)=C[C@@H](C(=O)O1)[C@]34O)O2 | 292.22 |
| CC(C)Oc1cccc(NC(=O)c2ccccc2C(F)(F)F)c1 | 176.16 |
| Cc1nc(=O)c(-c2ccccc2)n[nH]1 | 137.07 |
| Nc1cnn(-c2ccccc2)c(=O)c1Cl | 141.68 |
| COCC(=O)Nc1c(I)c(C(=O)NCC(O)CO)c(I)c(C(=O)N(C)CC(O)CO)c1I (stereo unspecified) [Iopromide] | 212.29 |
| N[C@@H](Cc1cc(I)c(Oc2cc(I)c(O)c(I)c2)c(I)c1)C(=O)O | 208.7 |
| C#C[C@]1(O)CC[C@H]2[C@@H]3CCc4cc(O)ccc4[C@H]3CC[C@@]21C | 182.24 |
| CCNS(=O)(=O)C(F)(F)C(F)(F)C(F)(F)C(F)(F)C(F)(F)C(F)(F)C(F)(F)C(F)(F)F [2-N-Ethylperfluorooctanesulfonamide] | 178.3 |
| CC(C)(C)c1cc(CCC(=O)NCCCCCCNC(=O)CCc2cc(C(C)(C)C)c(O)c(C(C)(C)C)c2)cc(C(C)(C)C)c1O | 254.68 |
| COCCN(C(=O)CS(=O)(=O)O)c1c(C)cccc1C | 167.03 |
| COc1ccc2c(c1)[nH]c1c(C)nccc12 | 145.84 |
| Oc1ccc2c(c1)[nH]c1ccccc12 [2-Hydroxycarbazole] | 138.96 |
| CC(C)(C)c1ccc(O)cc1 | 137.69 |
| c1ccc2c(c1)[nH]c1cnccc12 | 129.43 |
| O=S(=O)(O)c1nc2ccccc2s1 | 139.34 |
| COc1nc(C)nc(NC(=O)NS(=O)(=O)c2ccccc2CCC(F)(F)F)n1 | 189.48 |
| Cc1c(Cl)cccc1Nc1ccccc1C(=O)O | 158.38 |
| COc1cc(OC)nc(NC(=O)NS(=O)(=O)N(C)S(C)(=O)=O)n1 | 179.05 |
| Cc1ccc(OS(=O)(=O)[O-])cc1 [p-Tolyl Sulfate] | 135.45 |
| COc1ccc2nc(SCc3ncc(C)c(OC)c3C)[nH]c2c1 [Omeprazole sulfide] | 181.72 |
| CCC(C)c1cc([N+](=O)[O-])cc([N+](=O)[O-])c1O (stereo unspecified) | 149.61 |
| C[C@H]1CCCC(=O)CCC/C=C/c2cc(O)cc(O)c2C(=O)O1 | 178.16 |
| NS(=O)(=O)C(F)(F)C(F)(F)C(F)(F)C(F)(F)C(F)(F)C(F)(F)C(F)(F)C(F)(F)F [Perfluorooctanesulfonamide] | 169.81 |
